- Test system: BT-549 breast
- METHOD: NCI tumour cell line growth inhibition, 48 h
GI50 overview

Consider the reported GI50 for these molecules:
COc1ccc(C(c2ccc(OCCN(C)C)cc2)c2cc3ccccc3c3ccccc23)cc1 (centres undefined) : 1.78 µM
O=C(O)c1cn(C2CC2)c2cc(N3CCN(C(=O)Nc4nc(-c5ccccc5)cs4)CC3)c(F)cc2c1=O : 0.473 µM
CC1=CC(=O)C(C(C)C)=CC1=Nc1cc(Br)c(O)c(Br)c1 : 1.69 µM
COc1ccc(S(=O)(=O)NC2=NCCN2C(=S)SN2CCn3c2nsc3=S)cc1 : 10.4 µM
COc1cc(NS(C)(=O)=O)ccc1Nc1c2ccccc2nc2ccccc12 : 3.14 µM [middle of 4 runs]
Cc1cc(Nc2nc(-c3cccnc3)nc3ccccc23)n[nH]1 : 4.24 µM
FC(F)(F)c1ccc(-c2cnc(-n3cc(COCCN4CCCCC4)nn3)nc2NC2CCCCCC2)cc1 : 4.33 µM
COc1cccc(/C=N/NC(=S)NC2CC3CCC2C3)c1O (centres undefined) : 14.5 µM

Note: attention shifts to another entry.
*Q* May I ask what GI50 has been recorded for COc1cccc(-c2ccc3c(c2)C2CCN(Cc4ccccc4)C3C2)c1 (centres undefined) ?
*A* 6.12 µM

###

TGI overview
- Test system: OVCAR-5 ovarian
- METHOD: NCI tumour cell line growth inhibition, 48 h

Consider the reported TGI for these molecules:
CCOC(=O)c1nc2ccccc2nc1Oc1ccc(C(=O)OC)cc1 : > 100 µM
Nc1ccccc1.[C-]#[O+].[C-]#[O+].[C-]#[O+].[C-]#[O+].[C-]#[O+].[Cr] : > 10 µM
CN(C)C(=Nc1nc(=[N+](C)C)ss1)N(C)C : > 100 µM
Cc1ccc(-c2c3c(nn2-c2ccc(S(N)(=O)=O)cc2)-c2ccccc2C3)cc1 : 63.7 µM
CC(=O)NC1C(OCc2ccccc2)OC(CO)C(O)C1OC(C)C(=O)N[C@@H](C)C(=O)N[C@H](CCC(=O)OCCNc1c2ccccc2nc2cccc([N+](=O)[O-])c12)C(N)=O (stereo not given in full) : 0.0061 µM
O=C1C=CC(=C(c2ccc(O)cc2)c2ccc(O)cc2)C=C1 : 32.3 µM

Note: attention shifts to another entry.
*Q* May I ask what TGI has been recorded for Cc1nnc2c3nnc(C)n3c3ccccc3n12 ?
*A* > 100 µM

###

- Test system: NCI-H460 lung
- METHOD: NCI tumour cell line growth inhibition, 48 h
RESULT_TYPE: TGI

Consider the reported TGI for these compounds:
CCCC(O)c1cn(C(NC(=O)c2ccccc2)P(=O)(OCC)OCC)nn1 (centres undefined) : > 100 µM
COC(=O)C1=C(c2ccc(OC)c(OC)c2)OC(c2cc(OC)c(OC)c(OC)c2)C1 (centres undefined) : > 100 µM
CSCCCS/C1=C/CCCCCCCCCC1 : > 100 µM
COP(=O)(OC)C(NC(=O)C(F)(F)F)(c1ccccc1)C(F)(F)F (centres undefined) : > 100 µM
O=C(CCCCCCCCC(=O)N1C(=O)CC(=O)N(c2ccccc2)C1=S)N1C(=O)CC(=O)N(c2ccccc2)C1=S : > 100 µM
COC(OC)C1OCC(n2cc(F)c(=O)[nH]c2=O)C1O (centres undefined) : > 100 µM

*Q* May I ask what TGI has been recorded for COC(=O)C1OC2(CCCC3CC32)O[C@H]1C(=O)OC (some centres undefined) ?
*A* > 100 µM

*Q* Same question for C=C1C(=O)O[C@H]2[C@H]1CC/C(COC(=O)CCSCCC(=O)OC/C1=C/CC[C@@]3(C)O[C@H]3[C@H]3OC(=O)C(=C)[C@@H]3CC1)=C\CC[C@@]1(C)O[C@@H]21 please.
*A* 4.21 µM

*Q* Same question for O=c1oc2ccc([N+](=O)[O-])cc2c(Nc2ccc3c(c2)Sc2ccccc2O3)c1[N+](=O)[O-] please.
*A* 57.8 µM

###

- System: 786-0 renal
- METHOD: NCI tumour cell line growth inhibition, 48 h
RESULT_TYPE: TGI

*Q* May I ask what TGI has been recorded for O=C1Nc2ccccc2Cn2c1cc1oc(-c3ccccc3)cc12 ?
*A* 45.4 µM

*Q* Same question for CN(CCO)CCCC1COc2ccccc2O1 (stereo unspecified) please.
*A* > 100 µM

*Q* Same question for CCOC(=O)c1nc2ccccc2nc1Oc1ccc(C(=O)OC)cc1 please.
*A* > 100 µM

*Q* Same question for O=S(=O)(O)c1ccc(N=Nc2nc(C(F)(F)F)c(C(F)(F)F)[nH]2)cc1 please.
*A* > 100 µM

*Q* Same question for CCOC(=O)c1c(Br)c(-c2ccc(OC)cc2)c(Br)n1C please.
*A* 73.4 µM

###

- Test system: MDA-MB-435
- METHOD: NCI tumour cell line growth inhibition, 48 h
RESULT_TYPE: TGI (µM)
Reply with just the number (in µM).

COc1ccc(C(c2ccc(OCCN(C)C)cc2)c2cc3ccccc3c3ccccc23)cc1 (stereo not given) : 3.14

*Q* May I ask what TGI has been recorded for CCOC(=O)c1sc2nc(SC)nc3c2c1NCN3c1ccc(F)c(F)c1 ?
*A* 41.7

###

- Test system: HCT-15 colon
- METHOD: NCI tumour cell line growth inhibition, 48 h; in the data active = GI50 below about 0.43 µM; inactive = the rest
Mark one answer only. Choices: true (active), false (inactive)

*Q* Recorded test outcome, item O=C(CN1CCN(c2cc3c(cc2F)c(=O)c(C(=O)O)cn3C2CC2)CC1)Nc1nc(-c2ccc(Cl)cc2)cs1
*A* false

*Q* Same question for N#Cc1c(Br)n(C2OC(CO)C(O)C2O)c2ncnc(N)c12 (centres undefined) please.
*A* false

*Q* Same question for Cc1cc(S(=O)(=O)/N=C/N(C)C)c(SC(=O)c2ccc(Cl)cc2)cc1Cl please.
*A* false

###

- Tested on: CAKI-1 renal
- METHOD: NCI tumour cell line growth inhibition, 48 h; in the data active = GI50 below about 0.43 µM; inactive = the rest
Mark one answer only. Choices: active, inactive

Cc1ccc(C(NC(=O)c2ccccc2)c2ccc3cccnc3c2O)cc1 (centres undefined) : active
Cc1ccc(-c2c3c(nn2-c2ccc(S(N)(=O)=O)cc2)-c2ccccc2C3)cc1 : inactive
COc1ccccc1C1=C(Nc2ccccc2)C(=O)NC1=O : inactive
COc1ccc(S(=O)(=O)NC2=NCCN2C(=S)SN2CCn3c2nsc3=S)cc1 : inactive
Cc1ccc(/C=C2\CN(C(=O)C(Cl)Cl)C/C(=C\c3ccc(C)cc3)C2=O)cc1 : active

# evaluate next
*Q* Recorded test outcome, item Nc1nc(N)c(C=Nc2ccc(Br)cc2)c(Nc2ccc(Br)cc2)n1
*A* inactive

###

TGI overview
- System: SK-MEL-5 melanoma
- METHOD: NCI tumour cell line growth inhibition, 48 h

Consider the reported TGI for these molecules:
Nc1c(O)cc(N=C2C(=O)C=CC=C2C(=O)O)c(O)c1C(=O)O : > 100 µM
O=[N+]([O-])c1ccc(C(Nc2ccccc2)P(c2ccccc2)c2ccccc2)cc1 (stereo not given) : > 100 µM
COC(=O)/C(=N/Nc1cccc(Cl)c1)C(C(=O)C(=O)Nc1cccc(Cl)c1C)c1nc2ccccc2nc1C (stereo not given) : > 100 µM
NNc1nncc2[nH]cnc12 : > 100 µM

*Q* May I ask what TGI has been recorded for C=C1c2nc3ccccc3n2C=C(c2ccc(C)cc2)N1c1ccc(C)cc1 ?
*A* > 69.8 µM

###

- Test system: MDA-MB-435
- METHOD: NCI tumour cell line growth inhibition, 48 h
RESULT_TYPE: TGI

Consider the reported TGI for these molecules:
CCOC(=O)c1cc(I)c(-c2cc(C)no2)n1C : > 100 µM
COc1ccc(/C=c2\sc3n(c2=O)C2C(NN=3)N(C)C(=O)N2C)cc1 (configuration not stated) : 0.759 µM
COc1cccc(-c2nn(-c3ccccc3)cc2-c2ccnc(NCCNC(=O)Nc3cccc(C(F)(F)F)c3)c2)c1 : 3.38 µM
CCN1C(=O)CCCc2c1ccc(Nc1ncc(Cl)c(NC3[C@@H](C(N)=O)[C@@H]4C=C[C@H]3C4)n1)c2OC (some centres not stated) : 9.85 µM

*Q* May I ask what TGI has been recorded for COc1ccc(/C=C/C(=O)c2cc(C(C)(C)C)c(O)c(C(C)(C)C)c2)cc1OC ?
*A* 21.2 µM

*Q* Same question for O=C1Nc2ccccc2Cn2c1cc1oc(-c3ccccc3)cc12 please.
*A* > 100 µM

*Q* Same question for CSCCCS/C1=C/CCCCCCCCCC1 please.
*A* > 100 µM

###

- Test system: SK-MEL-28 melanoma
- METHOD: NCI tumour cell line growth inhibition, 48 h
RESULT_TYPE: GI50

*Q* May I ask what GI50 has been recorded for CCOc1cc(Br)c(C(C)NC(=O)c2cccc(OC)c2)cc1OCC (centres undefined) ?
*A* 12000 nM

*Q* Same question for CC(C)N1CCN(Cc2ccc3c(NNC(=O)c4ccccc4)nc4cc(F)ccc4n23)CC1 please.
*A* 599 nM

*Q* Same question for O=[N+]([O-])c1ccc(Oc2nc(Nc3ccc(O[C@H]4CO[C@H]5[C@@H]4OC[C@@H]5O)c(Cl)c3)ncc2F)c(Cl)c1 please.
*A* 1550 nM

*Q* Same question for COc1cccc(/C=N/NC(=S)NC2CC3CCC2C3)c1O (centres undefined) please.
*A* 13100 nM

*Q* Same question for N[C@@H]1C(=O)N2C(C(=O)OC(c3ccccc3)c3ccccc3)=C(CCl)CS[C@H]12 please.
*A* 22400 nM

*Q* Same question for COC1=C(C)C(=O)c2c(c(CCCl)c3n2CCC3O)C1=O (centres undefined) please.
*A* 811 nM

*Q* Same question for Oc1ccc(-c2nc3ccc4[nH]ncc4c3c3c2CCCC3)c(F)c1 please.
*A* 2740 nM

*Q* Same question for COc1ccc(C(c2ccc(OCCN(C)C)cc2)c2cc3ccccc3c3ccccc23)cc1 (centres undefined) please.
*A* 1630 nM

*Q* Same question for COc1ccc2c(C3(c4cn(C)c5cc(OC)ccc45)C(=O)Nc4ccc(Cl)cc43)cn(C)c2c1 please.
*A* 4710 nM
